# Tested on: unidentified cell-surface target of MCF7 cells (Homo sapiens)
# assay_overview: flow
# assay_setup: n = Ds; ±0.1; whole cells, 4C
property_measured: pKd
FYI, pKd means -log10 of a concentration in mol per litre.

What value of pKd on unidentified cell-surface target of MCF7 cells (Homo sapiens) does GGCCCGGCTGGCGAAGCCTCCTGGNCTAAGGTTTCTAAAGGGCCCGCGTAGCG [08B-MCF7mh2] have?
8.64

====

# Test system: unidentified cell-surface target of MDA-MB-231 cells (Homo sapiens)
# assay_overview: flow
# assay_setup: n = Ds; ±5.6; whole cells, 4C
property_measured: Kd

Lab note: need Kd for CCCTCTTAAGTTTATAGNTGTCTTTTGGTNCCTAGGGCGTTTTAAAGGG [23-MB231b] on unidentified cell-surface target of MDA-MB-231 cells (Homo sapiens), anyone have it?
23.3 nM

====

# System: unidentified cell-surface target of MDA-MB-231 cells (Homo sapiens)
# assay_overview: flow
# assay_setup: n = Ds at 15 and 28; ±0.5; whole cells, 4C
property_measured: Kd
Please state the number and follow it with the unit.

For the sequence shown here, CCGCGCAGCCTGGGNTCTCTTTTAGTCNAGTTCAATCGCGCGG [07-MB231 (DsDs)] , give the reported Kd.
2.2 nM

====

# Test system: unidentified cell-surface target of MDA-MB-231 cells (Homo sapiens)
# assay_overview: flow
# assay_setup: n = Ds; ±0.3; whole cells, 4C
property_measured: Kd (nM)
# output: bare number, implied unit nM

What value of Kd has been recorded for this entry: CCGCGCAGCCTGGGNTCTCTTTTAGTCNAGTTCAATCGCGCGGCGCGTAGCG [07-MB231mh]
2

====

# Tested on: unidentified cell-surface target of MDA-MB-231 cells (Homo sapiens)
# assay_overview: flow
# assay_setup: n = Ds; ±0.9; whole cells, 4C
property_measured: Kd (nM)
Give the value, in units of nM, as a plain number.

Which Kd is reported for this sequence? CCCTCTTAAGTTTATAGNTGTCTTTTGGTNCCTAGGGCGTTTTAAAGGGCGCGTAGCG [23-MB231bmh]
2.5

====

# Tested on: unidentified cell-surface target of T-47D cells (Homo sapiens)
# assay_overview: flow
# assay_setup: n = Ds at 15 and 24; ±6.7; whole cells, 4C
property_measured: Kd (µM)
Provide only the numeric value, understood in µM.

Could you share which Kd value was measured for GCGGCGAAGATCACNACTAGGGGNCCTCGCCGC [03-T47D (DsDs)] ?
0.0916

====

# Tested on: unidentified cell-surface target of MDA-MB-231 cells (Homo sapiens)
# assay_overview: flow
# assay_setup: n = Ds; ±0.2; whole cells, 4C
property_measured: pKd
Lab note: report pKd as minus log10 of the concentration in molar units, number only.

Which measured pKd belongs to GGCGCCAGGGGTGTTTGTGCCGTGAGNTGTGGCGCC [05-MB231GC] , tested on unidentified cell-surface target of MDA-MB-231 cells (Homo sapiens)?
8.66

====

# Tested on: unidentified cell-surface target of MDA-MB-231 cells (Homo sapiens)
# assay_overview: flow
# assay_setup: n = Ds; ±0.1; whole cells, 4C
property_measured: Kd (nM)
Give a bare numeral; the unit nM is implied.

What does the data say about its Kd? Entry: GGCGCCAGGGGTGTTTGTGCCGTGAGNTGTGGCGCCCGCGTAGCG [05-MB231GCmh]
1.6

====

# Test system: unidentified cell-surface target of MCF7 cells (Homo sapiens)
# assay_overview: flow
# assay_setup: n = Ds; ±0.02; whole cells, 4C
property_measured: Kd

Fill blank: measured Kd of the sequence CGGTCNGTCGAACTGTNATGAGCGTGCCGCGCGTAGCG [14A-MCF7mh (38DsDs)] is ____.
2.6 nM

====

# System: unidentified cell-surface target of MCF7 cells (Homo sapiens)
# assay_overview: flow
# assay_setup: n = Ds; ±0.1 (printed 01); whole cells, 4C
property_measured: Kd (nM)
Form entry: value (nM) — number only.

I have this sequence here, GGCCCGGCTGGCATGTANTCATGCCTCCTGGNCTAAGGTTTCTAAAGGGCCCGCGTAGCG [08B-MCF7mh] , and I need its recorded Kd.
2.5

====

# Tested on: unidentified cell-surface target of MCF7 cells (Homo sapiens)
# assay_overview: flow
# assay_setup: n = Ds at 18 and 32; ±0.3; whole cells, 4C
property_measured: Kd (nM)
Hi! Could you send only the number? It should be in nM, unit omitted.

// returns reported Kd for input GGCCCGGCTGGCATGTANTCATGCCTCCTGGNCTAAGGTTTCTAAAGGGCC [08B-MCF7 (51DsDs)]
3.2

====

# Test system: unidentified cell-surface target of MCF7 cells (Homo sapiens)
# assay_overview: flow
# assay_setup: n = Ds; ±0.1; whole cells, 4C, Mg2+
property_measured: pKd
As a rule, pKd stands for the negative log10 of the concentration, concentration in M.

So what does the record say about pKd for CTCTAGTCNGTCGAACTGTNATGAGCGTGCTAGGGGG [14A-MCF7 (37DsDs)] ?
8.68

====

# System: unidentified cell-surface target of T-47D cells (Homo sapiens)
# assay_overview: flow
# assay_setup: n = Ds; ±3.0; whole cells, 4C
property_measured: Kd (nM)
Respond with the bare value in nM.

# get_value(readout='Kd', item= GCGGCGAAGATCACNACTAGGGGNCCTCGCCGCCGCGTAGCG [03-T47Dmh] )
39.3
